measurement_label: melting point (°C)
Record the value in °C, omitting the unit from your answer.

Example results:
INSERT INTO assay_data (compound, measured_number) VALUES
  ('Cc1c(C(=O)OCC(N)=O)cnn1-c1ccccc1 [OSM-S-57]', 154),
  ('O=C(O)c1ccc(-c2ccccc2)cc1 [p-phenylbenzoic_acid]', 227),
  ('CCCCCCCCCCNCCCCCCCCCC [di-n-decylamine]', 37);

### Prompt Item under review: CC(C)C1=C(O)C(=O)C2=C(C(=O)CC3C(C)(C)CCCC23C)C1=O (stereo not drawn) [7-Oxoroyleanone] . Reported melting point?
### Response 198

### Prompt For the compound CCCCCCCCCC#N [nonyl_cyanide] , what melting point is on record?
### Response -15

### Prompt // melting point lookup, key: O=C1C=C(NCCNc2ccccc2)C(=O)c2ccccc21 [2-{[2-(phenylamino)ethyl]amino}naphthalene-1,4-dione]
### Response 141

### Prompt Quick one: melting point for O=C(O)c1ccc(-n2nc(-c3ccccc3O)nc2-c2ccccc2O)cc1 [Deferasirox] ?
### Response 116

### Prompt Name the reported melting point value associated with the compound O=C1CCCC1 [Cyclopentanone]
### Response -51

### Prompt Consider the compound C/C(=C(/C#N)c1nc2ccccc2s1)c1cc2ccccc2oc1=O and give its measured melting point.
### Response 156

### Prompt Could you tell me which melting point is on file for NC(CO)Cc1ccccc1 (single isomer, unassigned; (-)) [(-)-2-amino-3-phenyl-1-propanol] ?
### Response 92

### Prompt For COC1=CC(=O)CC(C)C12Oc1c(Cl)c(OC)cc(OC)c1C2=O (stereo not drawn) , what is its reported melting point?
### Response 219

### Prompt Reported melting point for CCOC(=O)c1cc(C(=O)OCC)c([N+](=O)[O-])cc1[N+](=O)[O-] [diethyl 4,6-dinitrobenzene-1,3-dicarboxylate] : what is it?
### Response 124

### Prompt Fill in: melting point of C[C@]12CC[C@@H]3c4ccc(O)cc4CC[C@H]3[C@@H]1CC[C@@H]2O [beta-estradiol] is ___
### Response 177

### Prompt State the recorded melting point for this entry: N#Cc1ccccc1C(N)=O [o-cyanobenzamide]
### Response 172

### Prompt Can you share its melting point? I mean this compound: O=Cc1ccc([N+](=O)[O-])cc1 [4-nitrobenzaldehyde]
### Response 105

### Prompt Requested field: melting point. Item: Cn1c(Cl)cc(=O)n(C)c1=O [6-chloro-1,3-dimethyluracil]
### Response 110

### Prompt // melting point lookup, key: Nc1cn[nH]c1 [4-amino-1h-pyrazole]
### Response 75

###

1.0 if melting point is below 80 °C. 0.0 if not; exact matches included in 0.0.

Here are 8 compounds together with their reported answers.
INSERT INTO assay_data (compound, classification) VALUES
  ('CN(C)c1ccc(C=O)cc1 [4-(Dimethylamino)benzaldehyd]', 1.0),
  ('CC1=CCCCC1', 1.0),
  ('CC(C(=O)O)c1ccc(-c2ccccc2)c(F)c1 (stereo not given) [Flurbiprofen]', 0.0),
  ('C#CC1(O)CCC2C3CCc4cc(O)ccc4C3CCC21C (stereo not given) [17a-Ethynylestradiol]', 0.0),
  ('COC(=O)C1=Nc2ccccc2C1(C)C [methyl 3,3-dimethyl-3H-indole-2-carboxylate]', 1.0),
  ('Fc1c(F)c(F)c(B(c2c(F)c(F)c(F)c(F)c2F)c2c(F)c(F)c(F)c(F)c2F)c(F)c1F', 0.0),
  ('O=C(O)c1cc(Cl)ccc1Br', 0.0),
  ('CCOC(=O)CCC(=O)OCC [diethyl_succinate]', 1.0);

### Prompt Lab log: compare recorded melting point with 80 °C; is it strictly lower for C/C=C\C(C)(C)C [4,4-dimethyl-cis-2-pentene] ?
### Response 1.0

### Prompt Check if melting point falls below 80 °C for COCOC [Dimethoxymethane] .
### Response 1.0

###

Definition: the class of an entry is the range in I = under 50 °C, II = from 50 °C up to 200 °C, III = 200 °C and over that contains its melting point.

Examples with answers:
INSERT INTO measurements (compound, classification) VALUES
  ('COc1cc(N)c(C(C)=O)cc1OC [2''-amino-4'',5''-dimethoxyacetophenone]', 'II'),
  ('Cc1cccnc1 [3-picoline]', 'I'),
  ('OB(O)c1ccc(F)cc1 [4-fluorobenzeneboronic acid]', 'III'),
  ('CC(=O)O [Acetic acid]', 'I'),
  ('Cc1cc(CC(=O)O)ccc1F [4-fluoro-3-methylphenylacetic acid]', 'II');

### Prompt In plain terms, what class is CCCCCCCBr [1-bromoheptane] ?
### Response I

### Prompt # classify by melting point band: O=C(O)C(O)C(O)C(=O)O (stereo unspecified) [tartaric acid]
### Response II

### Prompt Dear colleague, I would appreciate it if you could identify the bin for Oc1c(Cl)c(Cl)c(Cl)c(Cl)c1Cl [Pentachlorophenol] and reply at your convenience.
### Response II

### Prompt Dear colleague, I would appreciate it if you could identify the bin for CC(=O)Nc1cccc2c([N+](=O)[O-])cccc12 [N-(5-nitronaphthalen-1-yl)acetamide] and reply at your convenience.
### Response III

### Prompt Hi there! Could you help me figure out the category for Cc1cc(/C=C2\SC(N(CC#N)c3ccccc3)=NC2=O)c(C)n1-c1ccc(C(F)(F)F)cc1 [OSM-S-42] please?
### Response II

###

Each item that follows carries a reported melting point.
Just the number please, in °C, no unit attached.

INSERT INTO measurements (molecule, measured_number) VALUES
  ('Clc1c(Cl)c(Cl)c(Cl)c(Cl)c1Cl [hexachlorobenzene]', 231),
  ('C=CCBr [allyl bromide]', -119),
  ('OB(O)C1CC1 [cyclopropylboronic acid]', 93),
  ('CCOC(=O)c1ccc(NC(=O)C(F)(F)C(F)(F)C(F)(F)C(F)(F)C(F)(F)C(F)(F)C(F)(F)C(F)(F)F)cc1', 136),
  ('O=C(O)CCCc1ccc(F)cc1 [4-(4-fluorophenyl)butyric acid]', 45);

### Prompt Recorded melting point for Cc1ccc(C)c(N)c1 [2,5-Xylidine] , please?
### Response 15.5

###

Grouping rule (melting point): bottom end: < 60 °C; midrange: ≥ 60 °C and < 200 °C; top end: ≥ 200 °C

Examples with answers:
INSERT INTO assay_data (compound, classification) VALUES
  ('CC(C)CC(=O)O [isovaleric acid]', 'bottom end'),
  ('N#Cc1ccccc1C#N [phthalonitrile]', 'midrange'),
  ('CCC(=O)c1ccc(Cl)cc1 [1-(4-Chlorophenyl)propan-1-one]', 'bottom end'),
  ('OCc1ccccc1-c1ccccc1 [2-biphenylmethanol]', 'bottom end');

### Prompt Which category does the recorded melting point put Nc1ccc([N+](=O)[O-])cc1Cl [2-Chloro-4-nitroaniline] in?
### Response midrange

### Prompt Which bin, given its melting point, does CCCCCC(=O)OC [Methyl hexanoate] occupy?
### Response bottom end

### Prompt Category lookup for the compound NC(=O)N1c2ccccc2C=Cc2ccccc21 [carbamazepine]
### Response midrange

### Prompt Kindly state the category for this compound: Nc1ncnc(Nc2ccc(Cl)cc2)n1 [chlorazanil]
### Response top end

###

Consider the following molecules and their measured melting point readings.
Report only the number, with the unit °C understood.

INSERT INTO results (molecule, measured_number) VALUES
  ('CCOc1ccc(NC(=O)CN)cc1 [Phenokoll]', 101),
  ('CCCCCCCC(C)CC (configuration not stated) [3-methyldecane]', -76),
  ('Nc1ccc(O)c(C(=O)O)c1 [5-aminosalicylic acid]', 280),
  ('CCc1cc(C(N)=S)ccn1 [Ethionamide]', 163),
  ('C#CC(C)(C)C [3,3-dimethyl-1-butyne]', -78),
  ('O=C(O)C(c1ccccc1)c1ccccc1 [diphenylacetic acid]', 147),
  ('CCCCCCCCCC(=O)O [decanoic acid]', 31),
  ('BrCCCBr [1,3-Dibromopropane]', -34),
  ('Brc1cc(Br)cc(Br)c1 [1,3,5-tribromobenzene]', 123),
  ('O=C(O)COc1ccc(CO)cc1 [4-(hydroxymethyl)phenoxyacetic acid]', 112);

### Prompt Fill blank: measured melting point of the molecule O=C(Cl)c1ccc(Cl)cc1 [4-Chlorobenzoyl chloride] is ____.
### Response 13

### Prompt I'd like to know its melting point. The molecule in question is COc1ccc(CCCC(=O)O)cc1 [4-(4-methoxyphenyl)butanoic acid]
### Response 59

### Prompt What does the record list as melting point for O=C(Cl)OCc1ccccc1 [benzyl chloroformate] ?
### Response -20

### Prompt What does the record list as melting point for COc1cccc(C=O)c1O [2-hydroxy-3-methoxybenzaldehyde] ?
### Response 41

### Prompt Consider the molecule Cc1ccc(B(O)O)cc1C [3,4-dimethylbenzeneboronic acid] and give its measured melting point.
### Response 220

### Prompt I am curious: what melting point value has been reported for Cc1noc(NS(=O)(=O)c2ccc(N)cc2)c1C [Sulfisoxazole] ?
### Response 194

### Prompt Please give the measured melting point for this molecule: O=C(O)c1ccc([N+](=O)[O-])c(O)c1 [3-hydroxy-4-nitrobenzoic acid]
### Response 234

### Prompt Fill in the blank: the reported melting point of COC(=O)c1ccc(C=O)cc1 [Methyl 4-formylbenzoate] is ____.
### Response 61

### Prompt Entry CCCCOC(=O)c1ccc(O)cc1 [butyl 4-hydroxybenzoate] : reported melting point = ?
### Response 69

### Prompt Field request: melting point | item: OCc1ccccc1 [Phenylmethanol]
### Response -15

### Prompt Need melting point, item COc1cc(C(=O)NN)cc(OC)c1O [3,5-dimethoxy-4-hydroxybenzhydrazide]
### Response 156

### Prompt So what does the record say about melting point for CCCCCCCCCCCCC [tridecane] ?
### Response -5

### Prompt State the recorded melting point for this entry: O=S(=O)(Cl)c1ccc(F)cc1 [4-fluorobenzenesulfonyl chloride]
### Response 37

### Prompt Please report the recorded melting point for N#Cc1ccc(N=C=S)cc1 [4-cyanophenyl isothiocyanate] .
### Response 120

### Prompt If you can, please state the reported melting point value of CCCCCCCCN(C)C [N,N-dimethyl-n-octylamine] .
### Response -57

### Prompt Sample Cc1ccc(N)c(N)c1 [3,4-diaminotoluene] — what was its melting point?
### Response 88

### Prompt Which melting point value is on record for O=C(Nc1ccccc1/C=C/c1ccccc1)c1ccccc1 [N-{2-[(E)-2-phenylethenyl]phenyl}benzamide] ?
### Response 98

### Prompt Item under review: CC(=O)Nc1ccccc1C#Cc1ccccc1 [N-[2-(phenylethynyl)phenyl]acetamide] . Reported melting point?
### Response 119

Values were extracted from the Bradley open melting point set (2014).
